Exercise: state measured FC_60min (fold change of cleavage product, Annotated_Sequence) for each of the sequences provided.
# SYSTEM NAME: PARLΔ77 (Homo sapiens)
# Construct: GFP-hexahistidine (behind a TEV cleavage site) (C, cleaved yes); made in house; host or cells: Pichia pastoris
# Sequence (Q9H300 78-379): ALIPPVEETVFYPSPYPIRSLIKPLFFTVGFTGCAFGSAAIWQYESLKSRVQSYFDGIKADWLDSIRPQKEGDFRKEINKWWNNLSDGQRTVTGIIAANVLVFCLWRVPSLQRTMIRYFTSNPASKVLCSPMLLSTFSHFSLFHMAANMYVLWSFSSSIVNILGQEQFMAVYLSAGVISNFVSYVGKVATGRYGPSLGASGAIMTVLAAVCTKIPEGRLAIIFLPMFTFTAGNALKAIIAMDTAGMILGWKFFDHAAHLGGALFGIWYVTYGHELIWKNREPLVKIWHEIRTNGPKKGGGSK
# METHOD SUMMARY: Multiplex substrate profiling by mass spectrometry (MSP-MS), PARLΔ77 in DDM
# Format: biochemical
# CONDITION SET: PARLΔ77 1 μM, 0.1% DDM, peptides 0.5 μM each, pH 7.0, 60 vs 0 min, LC-MS/MS, quadruplicate; TDP160: product INDFLVR.T

// fetch FC_60min (fold change of cleavage product, Annotated_Sequence) given entry GPKLTYDFWIQNLP [TDP89, synthetic tetradecapeptide of the 228-peptide library] 270.23

// fetch FC_60min (fold change of cleavage product, Annotated_Sequence) given entry AMTDRGWYLAIQAV [TDP15, synthetic tetradecapeptide of the 228-peptide library] 247.32

// fetch FC_60min (fold change of cleavage product, Annotated_Sequence) given entry MHSPWTMANFLRGP [TDP94, synthetic tetradecapeptide of the 228-peptide library] 682.585

// fetch FC_60min (fold change of cleavage product, Annotated_Sequence) given entry INDFLVRTWKMPGL [TDP160, synthetic tetradecapeptide of the 228-peptide library] 264.961

###

# SYSTEM NAME: PARLΔ77 (Homo sapiens, UniProt Q9H300)
# Construct: GFP-hexahistidine (behind a TEV cleavage site) (C, cleaved yes); made in house; host or cells: Pichia pastoris
# METHOD SUMMARY: Multiplex substrate profiling by mass spectrometry (MSP-MS), PARLΔ77 in proteoliposomes
# Type: biochemical
# CONDITION SET: PARLΔ77 1 μM in PL containing PC, PE and CL, peptides 0.5 μM each, pH 7.0, without DDM, 240 vs 0 min, LC-MS/MS, quadruplicate
# Protocol: Multiplex substrate profiling by mass spectrometry (MSP-MS) assays was performed in quadruplicate. […] Approximately 2 μg of peptides was injected into a Q-Exactive Mass Spectrometer (Thermo) equipped with an Ultimate 3000 HPLC. […] Survey scans were recorded over a 150–2000 m/z range (70,000 resolutions at 200 m/z, AGC target 3 × 10^6, 100 ms maximum). […]
QUANTITY: FC_240min (fold change of cleavage product, Annotated_Sequence)
Kindly provide the number alone.

// fetch FC_240min (fold change of cleavage product, Annotated_Sequence) given entry QAVRPNGMYWHYLM [TDP216, synthetic tetradecapeptide of the 228-peptide library] 200.338

// fetch FC_240min (fold change of cleavage product, Annotated_Sequence) given entry MHSPWTMANFLRGP [TDP94, synthetic tetradecapeptide of the 228-peptide library] 1890.88

// fetch FC_240min (fold change of cleavage product, Annotated_Sequence) given entry NVDWTAPQLIEYLD [TDP138, synthetic tetradecapeptide of the 228-peptide library] 40.3813

// fetch FC_240min (fold change of cleavage product, Annotated_Sequence) given entry AETSIKVFMPYYGH [TDP91, synthetic tetradecapeptide of the 228-peptide library] 295.878

// fetch FC_240min (fold change of cleavage product, Annotated_Sequence) given entry GQYPMFVKISTTHW [TDP96, synthetic tetradecapeptide of the 228-peptide library] 328.605
